System: MCF7
EXPERIMENT NOTES: cells
CONDITION SET: Homo sapiens, MCF7, 72 h
Description: Antiproliferative activity against human MCF7 cells assessed as reduction in cell viability measured after 72 hrs by Cell Counting Kit-8 assay
Exercise: for every item that follows, state its recorded IC50.
Please respond with the number in nM and leave the unit unwritten.

Give its IC50 value. Item: O=S(=O)(Oc1cccc(Cl)c1)C1CC2OC1C(c1ccc([Se]c3ccccc3)cc1)=C2c1ccc(O)cc1 (stereo not drawn)
180

Give its IC50 value. Item: O=S(=O)(Oc1cccc([Se]c2ccccc2)c1)C1CC2OC1C(c1ccc(O)cc1)=C2c1ccc(O)cc1 (stereo not drawn)
1710

Give its IC50 value. Item: O=S(=O)(Oc1ccccc1)C1CC2OC1C(c1ccc(O)cc1)=C2c1ccc([Se]c2ccccc2)cc1 (stereo not drawn)
160

Give its IC50 value. Item: O=S(=O)(Oc1ccc(Cl)cc1)C1CC2OC1C(c1ccc(O)cc1)=C2c1ccc([Se]c2ccccc2)cc1 (stereo not drawn)
370

Give its IC50 value. Item: O=S(=O)(Oc1cccc(O)c1)C1CC2OC1C(c1ccc(O)cc1)=C2c1ccc([Se]c2ccccc2)cc1 (stereo not drawn)
70

Give its IC50 value. Item: O=S(=O)(Oc1ccc(O)cc1)C1CC2OC1C(c1ccc(O)cc1)=C2c1ccc([Se]c2ccccc2)cc1 (stereo not drawn)
1960

Give its IC50 value. Item: O=S(=O)(Oc1ccc(Cl)cc1)C1CC2OC1C(c1ccc([Se]c3ccccc3)cc1)=C2c1ccc(O)cc1 (stereo not drawn)
140

Give its IC50 value. Item: O=S(=O)(Oc1ccc([Se]c2ccccc2)cc1)C1CC2OC1C(c1ccc(O)cc1)=C2c1ccc(O)cc1 (stereo not drawn)
800

---

EXPERIMENT NOTES: Tmax in BALB/C mouse at 5 mg/kg, iv by LC-MS/MS analysis
Type: ADME, organism-based
CONDITION SET: in vivo
ENDPOINT LABEL: Tmax
Report field: quantity (unit follows the number).

Give its Tmax value. Item: O=S(=O)(Oc1cccc2ccccc12)C1CC2OC1C(c1ccc([Se]c3ccccc3)cc1)=C2c1ccc(O)cc1 (stereo unspecified)
4.98 min

---

EXPERIMENT NOTES: Antiproliferative activity against human MCF-10A cells assessed as reduction in cell viability measured after 72 hrs by Cell Counting Kit-8 assay
Assay type: toxicity, cell-based
// returns not fulfilled unless IC50 at 72 h is strictly below 30 µM, in which case fulfilled

Dear reviewer, please state whether O=S(=O)(Oc1cccc(Br)c1)C1CC2OC1C(c1ccc([Se]c3ccccc3)cc1)=C2c1ccc(O)cc1 (stereo not drawn) has IC50 at 72 h strictly beneath 30 µM.
fulfilled

Dear reviewer, please state whether O=S(=O)(Oc1ccc(Br)cc1)C1CC2OC1C(c1ccc([Se]c3ccccc3)cc1)=C2c1ccc(O)cc1 (stereo not drawn) has IC50 at 72 h strictly beneath 30 µM.
fulfilled

Dear reviewer, please state whether O=S(=O)(Oc1cccc([Se]c2ccccc2)c1)C1CC2OC1C(c1ccc(O)cc1)=C2c1ccc(O)cc1 (stereo not drawn) has IC50 at 72 h strictly beneath 30 µM.
not fulfilled

Dear reviewer, please state whether O=S(=O)(Oc1cccc(C(F)(F)F)c1)C1CC2OC1C(c1ccc([Se]c3ccccc3)cc1)=C2c1ccc(O)cc1 (stereo not drawn) has IC50 at 72 h strictly beneath 30 µM.
not fulfilled

Dear reviewer, please state whether O=S(=O)(Oc1cccc(Cl)c1)C1CC2OC1C(c1ccc([Se]c3ccccc3)cc1)=C2c1ccc(O)cc1 (stereo not drawn) has IC50 at 72 h strictly beneath 30 µM.
fulfilled

Dear reviewer, please state whether O=S(=O)(Oc1ccccc1)C1CC2OC1C(c1ccc(O)cc1)=C2c1ccc(O)cc1 (stereo not drawn) has IC50 at 72 h strictly beneath 30 µM.
not fulfilled

Dear reviewer, please state whether O=S(=O)(Oc1ccc(Cl)cc1)C1CC2OC1C(c1ccc(O)cc1)=C2c1ccc([Se]c2ccccc2)cc1 (stereo not drawn) has IC50 at 72 h strictly beneath 30 µM.
not fulfilled

Dear reviewer, please state whether O=S(=O)(Oc1ccccc1)C1CC2OC1C(c1ccc(O)cc1)=C2c1ccc([Se]c2ccccc2)cc1 (stereo not drawn) has IC50 at 72 h strictly beneath 30 µM.
not fulfilled

---

EXPERIMENT NOTES: Volume of distribution at steady state in BALB/C mouse at 5 mg/kg, iv by LC-MS/MS analysis
Format: ADME, organism-based
CONDITION SET: in vivo, read-out: Vdss
ENDPOINT LABEL: Vd

Give its Vd value. Item: O=S(=O)(Oc1cccc2ccccc12)C1CC2OC1C(c1ccc([Se]c3ccccc3)cc1)=C2c1ccc(O)cc1 (stereo unspecified)
21.6 L/kg

---

EXPERIMENT NOTES: Antiproliferative activity against human MCF-10A cells assessed as reduction in cell viability measured after 72 hrs by Cell Counting Kit-8 assay
Format: toxicity, cell-based
// returns label 0 unless IC50 at 72 h is strictly below 20 µM, in which case label 1

Dear reviewer, please state whether O=S(=O)(Oc1ccc(Br)cc1)C1CC2OC1C(c1ccc(O)cc1)=C2c1ccc([Se]c2ccccc2)cc1 (stereo not drawn) has IC50 at 72 h strictly beneath 20 µM.
label 0

Dear reviewer, please state whether Cc1ccc(OS(=O)(=O)C2CC3OC2C(c2ccc(O)cc2)=C3c2ccc([Se]c3ccccc3)cc2)cc1 (stereo not drawn) has IC50 at 72 h strictly beneath 20 µM.
label 1

Dear reviewer, please state whether O=S(=O)(Oc1ccc(C(F)(F)F)cc1)C1CC2OC1C(c1ccc(O)cc1)=C2c1ccc([Se]c2ccccc2)cc1 (stereo not drawn) has IC50 at 72 h strictly beneath 20 µM.
label 1

Dear reviewer, please state whether O=S(=O)(Oc1ccc(O)cc1)C1CC2OC1C(c1ccc(O)cc1)=C2c1ccc([Se]c2ccccc2)cc1 (stereo not drawn) has IC50 at 72 h strictly beneath 20 µM.
label 1

Dear reviewer, please state whether O=S(=O)(Oc1ccc(Cl)cc1)C1CC2OC1C(c1ccc([Se]c3ccccc3)cc1)=C2c1ccc(O)cc1 (stereo not drawn) has IC50 at 72 h strictly beneath 20 µM.
label 0

Dear reviewer, please state whether O=S(=O)(Oc1ccc(C(F)(F)F)cc1)C1CC2OC1C(c1ccc([Se]c3ccccc3)cc1)=C2c1ccc(O)cc1 (stereo not drawn) has IC50 at 72 h strictly beneath 20 µM.
label 1

Dear reviewer, please state whether O=S(=O)(Oc1cccc(O)c1)C1CC2OC1C(c1ccc(O)cc1)=C2c1ccc([Se]c2ccccc2)cc1 (stereo not drawn) has IC50 at 72 h strictly beneath 20 µM.
label 1

Dear reviewer, please state whether O=S(=O)(Oc1cccc2ccccc12)C1CC2OC1C(c1ccc(O)cc1)=C2c1ccc([Se]c2ccccc2)cc1 (stereo not drawn) has IC50 at 72 h strictly beneath 20 µM.
label 0

---

EXPERIMENT NOTES: Antiproliferative activity against human MCF-10A cells assessed as reduction in cell viability measured after 72 hrs by Cell Counting Kit-8 assay
Assay type: toxicity, cell-based
Exercise: for every item that follows, state its recorded IC50 at 72 h.
Please respond with the number in µM and leave the unit unwritten.

Give its IC50 at 72 h value. Item: Cc1ccc(OS(=O)(=O)C2CC3OC2C(c2ccc([Se]c4ccccc4)cc2)=C3c2ccc(O)cc2)cc1 (stereo not drawn)
18.5

Give its IC50 at 72 h value. Item: COc1ccc(OS(=O)(=O)C2CC3OC2C(c2ccc([Se]c4ccccc4)cc2)=C3c2ccc(O)cc2)cc1 (stereo not drawn)
29.1

Give its IC50 at 72 h value. Item: COc1cccc(OS(=O)(=O)C2CC3OC2C(c2ccc(O)cc2)=C3c2ccc([Se]c3ccccc3)cc2)c1 (stereo not drawn)
17.9

---

System: MCF7
EXPERIMENT NOTES: cells
CONDITION SET: Homo sapiens, MCF7, 72 h
ENDPOINT LABEL: IC50 (nM)
Please respond with the number in nM and leave the unit unwritten.

Give its IC50 value. Item: Cc1cccc(OS(=O)(=O)C2CC3OC2C(c2ccc([Se]c4ccccc4)cc2)=C3c2ccc(O)cc2)c1 (stereo not given)
120

Give its IC50 value. Item: O=S(=O)(Oc1ccccc1)C1CC2OC1C(c1ccc(O)cc1)=C2c1ccc(O)cc1 (stereo not given)
14600

Give its IC50 value. Item: Cc1ccc(OS(=O)(=O)C2CC3OC2C(c2ccc(O)cc2)=C3c2ccc([Se]c3ccccc3)cc2)cc1 (stereo not given)
3980

Give its IC50 value. Item: O=S(=O)(Oc1cccc(C(F)(F)F)c1)C1CC2OC1C(c1ccc([Se]c3ccccc3)cc1)=C2c1ccc(O)cc1 (stereo not given)
540

Give its IC50 value. Item: O=S(=O)(Oc1ccc(Br)cc1)C1CC2OC1C(c1ccc(O)cc1)=C2c1ccc([Se]c2ccccc2)cc1 (stereo not given)
550

Give its IC50 value. Item: O=S(=O)(Oc1cccc(Br)c1)C1CC2OC1C(c1ccc([Se]c3ccccc3)cc1)=C2c1ccc(O)cc1 (stereo not given)
1360

Give its IC50 value. Item: O=S(=O)(Oc1ccc(C(F)(F)F)cc1)C1CC2OC1C(c1ccc(O)cc1)=C2c1ccc([Se]c2ccccc2)cc1 (stereo not given)
150

Give its IC50 value. Item: O=S(=O)(Oc1cccc2ccccc12)C1CC2OC1C(c1ccc(O)cc1)=C2c1ccc([Se]c2ccccc2)cc1 (stereo not given)
1130

Give its IC50 value. Item: COc1cccc(OS(=O)(=O)C2CC3OC2C(c2ccc(O)cc2)=C3c2ccc([Se]c3ccccc3)cc2)c1 (stereo not given)
660

Give its IC50 value. Item: COc1ccc(OS(=O)(=O)C2CC3OC2C(c2ccc(O)cc2)=C3c2ccc([Se]c3ccccc3)cc2)cc1 (stereo not given)
7460

Source: ChEMBL document CHEMBL5154927
